# System: K-562 leukemia
# Assay overview: NCI-60 one-dose screen, 48 h (100 = growth as untreated, 0 = no growth, -100 = all killed)
# Measurement conditions: 10 µM
The panel holds about 83,000 compounds, 20% with a hit somewhere; the sample as a whole holds those more often.
Recorded endpoint: growth (%)
Answers are plain numbers, in %.

Worked examples, 6 compounds total:
CC(=O)O[C@@H]1[C@@H]2O[C@H]2[C@@](C)(O)C(=O)[C@@H](C)C/C=C/[C@H]2[C@@H]3O[C@]3(C)[C@@H](C)C3[C@H](Cc4ccccc4)NC(=O)[C@@]312 (some centres not stated) : 68.8
CC1=C[C@H]2O[C@@H]3C[C@H]4OC(=O)/C=C\C=C\[C@H]([C@@H](C)O)OCC/C(C)=C/C(=O)OC[C@@]2(CC1)[C@]4(C)[C@]31CO1 : -6.8
CC1=C[C@H]2O[C@@H]3C[C@@H](O)[C@](C)([C@@]2(C)CC1)[C@@]31CO1 : 18.5
O=C(CCCc1ccc(N(CCCl)CCCl)cc1)OCc1ccccc1 : 93.8
N#Cc1nc(-c2ccccc2)oc1N1CCC(S(=O)(=O)F)CC1 : 103
C[C@@H]1C[C@H]2C(=O)O[C@@H](C)C(NC(=O)[C@H](Cc3cc(F)cc(F)c3)NC(=O)Nc3ccc(OS(=O)(=O)F)cc3)C(=O)N3CCC[C@H]3C(=O)N3CCO[C@H](C)[C@H]3C(=O)N[C@@H](CO)C(=O)N2C1 (some centres not stated) : 20.7

API: the following record is the query input.
Field growth (entry COc1cc2c(O[C@@H]3OC[C@H](O)[C@H](O)[C@H]3O)c3c(c(-c4ccc5c(c4)OCO5)c2cc1OC)C(=O)OC3 ) reads 19.3
